Tested on: A549
Test: Cytotoxicity against human A549 cells by MTT assay
Assay type: functional, cell-based
Listed compounds paired with reported IC50
Quantity: IC50 (µM)

C=C1C(=O)[C@]23C[C@@]1(OCC)CC[C@H]2[C@@]12C=CC(=O)[C@](C)(C(=O)O1)[C@H]2[C@@H]3C(=O)OCc1ccccc1
24.2
C=C1C(=O)[C@]23C[C@@]1(OCC)CC[C@H]2[C@@]12C=CC(=O)[C@](C)(C(=O)O1)[C@H]2[C@@H]3C(=O)OC
18.2
C=C1C(=O)[C@]23C[C@@]1(OC)CC[C@H]2[C@@]12C=CC(=O)[C@](C)(C(=O)O1)[C@H]2[C@@H]3C(=O)OCc1ccccc1
28.2
C=C1C(=O)[C@]23C[C@@]1(Cl)CC[C@H]2[C@@]12C=CC(=O)[C@](C)(C(=O)O1)[C@H]2[C@@H]3C(=O)OC
60.3
C=C1C(=O)[C@]23C[C@@]1(O)CC[C@H]2[C@@]12C=CC(=O)[C@](C)(C(=O)O1)[C@H]2[C@@H]3C(=O)OC
90.9
C=C1C(=O)[C@]23C[C@@]1(O)CC[C@H]2[C@@]12C=CC(=O)[C@](C)(C(=O)O1)[C@H]2[C@@H]3C(=O)OCc1ccccc1
23.9
C=C1C(=O)[C@]23C[C@@]1(OC)CC[C@H]2[C@@]12C=CC(=O)[C@](C)(C(=O)O1)[C@H]2[C@@H]3C(=O)OC
54.5

The measured values listed here are drawn from ChEMBL document CHEMBL1155979.
